Target: FGFR3 (UniProt P22607)
Sequence (P22607 whole entry, looked up): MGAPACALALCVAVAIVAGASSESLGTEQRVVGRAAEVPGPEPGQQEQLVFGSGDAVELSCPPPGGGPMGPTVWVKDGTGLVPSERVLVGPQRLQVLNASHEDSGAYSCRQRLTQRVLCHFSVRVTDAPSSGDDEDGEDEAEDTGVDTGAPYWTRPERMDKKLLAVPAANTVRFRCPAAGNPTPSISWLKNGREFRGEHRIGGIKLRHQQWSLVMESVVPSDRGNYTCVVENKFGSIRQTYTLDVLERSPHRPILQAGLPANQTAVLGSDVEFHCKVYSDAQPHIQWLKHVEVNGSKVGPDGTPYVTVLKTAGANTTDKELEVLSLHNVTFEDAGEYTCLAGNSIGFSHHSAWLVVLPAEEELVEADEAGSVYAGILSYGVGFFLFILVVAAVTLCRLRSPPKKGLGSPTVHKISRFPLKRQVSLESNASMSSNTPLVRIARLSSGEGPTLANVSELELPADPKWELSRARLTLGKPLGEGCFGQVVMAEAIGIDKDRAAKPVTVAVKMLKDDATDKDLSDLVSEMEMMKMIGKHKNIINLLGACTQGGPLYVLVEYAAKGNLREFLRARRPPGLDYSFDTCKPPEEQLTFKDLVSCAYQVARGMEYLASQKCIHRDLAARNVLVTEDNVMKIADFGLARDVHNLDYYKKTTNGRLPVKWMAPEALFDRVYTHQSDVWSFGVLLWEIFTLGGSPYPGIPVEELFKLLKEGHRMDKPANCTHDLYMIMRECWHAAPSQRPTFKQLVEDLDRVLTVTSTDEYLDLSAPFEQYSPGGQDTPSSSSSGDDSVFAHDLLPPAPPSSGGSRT
Assay: phosphorylation enrichment, bacterial display (enrichment ratio); higher = better substrate or ligand; peptides without Tyr show the background;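 note: 11-residue human phosphosite peptides and single-mutation variants displayed on the E. coli surface, counted by deep sequencing, each peptide's frequency after selection divided by its frequency in the unselected input library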;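 note: frequency after pTyr selection over input frequency; kinase dosed for 20-30% of maximal phosphorylation in three min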
Response field class: enum, chosen by comparing phosphorylation enrichment against low: < 0.5; intermediate: ≥ 0.5 and < 0.7; high: ≥ 0.7

Illustrative cases are given below, each with its answer.
[
  {
    "Seq": "RALCHYYKLNI [ETV6_Y401_R399C]",
    "Classification": "high"
  },
  {
    "Seq": "ELTSKYRGGGG [HBA1_Y141_V136E]",
    "Classification": "low"
  },
  {
    "Seq": "EPYKVYRIVPE [IRF8_Y110]",
    "Classification": "intermediate"
  },
  {
    "Seq": "KLGDVYVNVAF [PGK1_Y161_D164V]",
    "Classification": "high"
  },
  {
    "Seq": "VTQEQYELFCE [CBL_Y368_YF]",
    "Classification": "high"
  }
]

State the band of TTKAKYKTPIY [PLD2_Y573_T577I]
intermediate

State the band of TRDVNYGWIIR [MT-CYB_Y75]
intermediate

State the band of GRQGIYTKNER [GPR143_Y231_E233K]
low

State the band of NNIDFYKNTTN [FGFR2_Y657_K659N_YF]
intermediate

State the band of NFDLDYDSVQP [MYC_Y16_YF]
intermediate

State the band of FHIDHYLGKEM [G6PD_Y202_R198H_YF]
low

State the band of CNPLRYPTIMI [OR6K6_Y160]
high

State the band of PTQLPYDHKWK [KIT_Y578_E583K]
low

---

Biological target: MERTK (UniProt Q12866)
Sequence (Q12866 whole entry, looked up): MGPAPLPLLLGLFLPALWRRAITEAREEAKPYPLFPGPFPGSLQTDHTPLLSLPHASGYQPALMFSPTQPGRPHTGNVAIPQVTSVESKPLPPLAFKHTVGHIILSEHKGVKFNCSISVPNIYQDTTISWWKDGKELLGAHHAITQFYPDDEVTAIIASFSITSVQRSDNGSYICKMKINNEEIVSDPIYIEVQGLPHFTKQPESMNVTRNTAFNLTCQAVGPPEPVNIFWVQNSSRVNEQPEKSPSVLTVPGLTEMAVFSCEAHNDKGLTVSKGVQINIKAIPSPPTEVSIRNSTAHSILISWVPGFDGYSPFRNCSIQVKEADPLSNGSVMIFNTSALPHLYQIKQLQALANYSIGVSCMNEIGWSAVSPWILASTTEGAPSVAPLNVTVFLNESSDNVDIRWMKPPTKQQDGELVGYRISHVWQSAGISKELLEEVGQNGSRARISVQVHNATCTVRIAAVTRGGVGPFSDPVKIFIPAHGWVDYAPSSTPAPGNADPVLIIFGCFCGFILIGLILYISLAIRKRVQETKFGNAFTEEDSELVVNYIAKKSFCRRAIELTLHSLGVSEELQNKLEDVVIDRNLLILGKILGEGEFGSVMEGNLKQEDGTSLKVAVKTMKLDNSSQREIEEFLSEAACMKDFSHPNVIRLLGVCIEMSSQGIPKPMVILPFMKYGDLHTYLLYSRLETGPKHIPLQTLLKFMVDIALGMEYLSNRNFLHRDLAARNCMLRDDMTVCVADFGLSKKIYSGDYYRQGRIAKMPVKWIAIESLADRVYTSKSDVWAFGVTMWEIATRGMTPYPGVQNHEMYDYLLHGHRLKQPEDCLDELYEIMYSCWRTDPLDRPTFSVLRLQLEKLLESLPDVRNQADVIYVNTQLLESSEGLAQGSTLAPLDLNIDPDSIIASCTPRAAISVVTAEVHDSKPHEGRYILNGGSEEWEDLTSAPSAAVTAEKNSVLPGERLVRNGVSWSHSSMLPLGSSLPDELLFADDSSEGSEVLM
Assay: phosphorylation enrichment, bacterial display (enrichment ratio); higher = better substrate or ligand; peptides without Tyr show the background
Here the recorded phosphorylation enrichment is given for each entry.
Note: the reply should be a number with no unit written.

[
  {
    "Seq": "RRRLIYRCQVG [NR2E3_Y81]",
    "phosphorylation enrichment": 0.735
  }
]

In one line, give reported phosphorylation enrichment of the entry IVRSRYEDLED [VHL_Y185_L184R] .
0.788

In one line, give reported phosphorylation enrichment of the entry IYHLSYIHNCE [PDE6B_Y227_L228I] .
4.22

In one line, give reported phosphorylation enrichment of the entry GREFIYVDPMQ [PDGFRA_Y574_H570R_YF] .
2

In one line, give reported phosphorylation enrichment of the entry KIEGVYARDET [RPL35A_Y34] .
0.386

In one line, give reported phosphorylation enrichment of the entry GIVKAYYVHAR [AIPL1_Y267_R270H] .
0.436

In one line, give reported phosphorylation enrichment of the entry CLGNQYVNVMN [SLC3A1_Y461_R456C] .
0.336

In one line, give reported phosphorylation enrichment of the entry CTTIHYNYMCI [TP53_Y234_N239I] .
1.41

In one line, give reported phosphorylation enrichment of the entry LLNPSYNLPLD [TOM1L1_Y109_R108S] .
0.854

In one line, give reported phosphorylation enrichment of the entry GMTLSYLFREP [NDUFS8_Y74] .
0.365

In one line, give reported phosphorylation enrichment of the entry SIKDKYLTALY [KCNH2_Y611_V612L] .
0.439

In one line, give reported phosphorylation enrichment of the entry NFRTTYVNANE [KCNH2_Y475] .
0.482

---

Target: FGFR1 (UniProt P11362)
Sequence (P11362 whole entry, looked up): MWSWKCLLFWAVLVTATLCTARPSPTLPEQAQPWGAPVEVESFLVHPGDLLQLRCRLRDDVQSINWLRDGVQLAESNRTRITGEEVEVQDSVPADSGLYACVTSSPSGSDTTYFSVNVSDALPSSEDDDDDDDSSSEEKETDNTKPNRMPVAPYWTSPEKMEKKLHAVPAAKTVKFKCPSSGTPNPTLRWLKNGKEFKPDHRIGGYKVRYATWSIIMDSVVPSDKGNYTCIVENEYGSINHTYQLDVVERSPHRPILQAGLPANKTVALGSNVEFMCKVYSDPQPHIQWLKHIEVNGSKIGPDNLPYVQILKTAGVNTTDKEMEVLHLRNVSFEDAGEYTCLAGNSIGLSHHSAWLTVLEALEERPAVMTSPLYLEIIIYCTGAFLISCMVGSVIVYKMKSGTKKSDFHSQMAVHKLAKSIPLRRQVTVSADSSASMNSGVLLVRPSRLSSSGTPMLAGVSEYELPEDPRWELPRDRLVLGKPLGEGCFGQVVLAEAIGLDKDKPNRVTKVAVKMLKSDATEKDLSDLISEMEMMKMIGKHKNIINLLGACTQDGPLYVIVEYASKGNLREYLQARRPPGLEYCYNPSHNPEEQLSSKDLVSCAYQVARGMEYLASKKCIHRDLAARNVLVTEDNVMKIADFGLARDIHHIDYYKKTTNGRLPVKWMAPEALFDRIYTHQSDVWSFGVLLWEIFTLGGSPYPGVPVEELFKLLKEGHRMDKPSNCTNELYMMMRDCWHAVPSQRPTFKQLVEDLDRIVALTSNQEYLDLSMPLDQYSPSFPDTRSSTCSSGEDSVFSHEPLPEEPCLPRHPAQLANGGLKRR
Test: phosphorylation enrichment, bacterial display (enrichment ratio); higher = better substrate or ligand; peptides without Tyr show the background
Criterion: phosphorylation enrichment meeting or surpassing 0.6. Met: 1. Not met: -1.

[
  {
    "Seq": "NACGLYHTMNG [GATA5_Y216_K218T]",
    "Classification": 1
  }
]

Is reported phosphorylation enrichment greater than or equal to 0.6 here: FVPAAYVKKLD [SPTAN1_Y1020]
-1

Is reported phosphorylation enrichment greater than or equal to 0.6 here: NFDLDYDSVQP [MYC_Y16_YF]
-1

Is reported phosphorylation enrichment greater than or equal to 0.6 here: GEFHVYRHLRW [PRKRIP1_Y82_R87W]
-1

Is reported phosphorylation enrichment greater than or equal to 0.6 here: FGSVMYEFVGK [SLC18A1_Y251]
1

Is reported phosphorylation enrichment greater than or equal to 0.6 here: CNSFQYGGGGG [NPPA_Y151_R150Q]
-1

Is reported phosphorylation enrichment greater than or equal to 0.6 here: DASENYFVMDS [TMEM240_Y77_T80M]
1

---

Tested on: c-Abl (mouse)
Experiment: phosphorylation enrichment, bacterial display (enrichment ratio); higher = better substrate or ligand; peptides without Tyr show the background
Criterion: phosphorylation enrichment meeting or surpassing 0.6. Met: rule met. Not met: rule not met.

Illustrative cases are given below, each with its answer.
[
  {
    "Seq": "PRAGVYPEKDQ [DNM2_Y626_L621P]",
    "Classification": "rule met"
  },
  {
    "Seq": "SSPVPYLSPET [TJP1_Y931]",
    "Classification": "rule met"
  },
  {
    "Seq": "KGKLIYLLGDS [NXPE1_Y350]",
    "Classification": "rule not met"
  }
]

Here's the next entry for you.
Is reported phosphorylation enrichment greater than or equal to 0.6 here: VIGRMYDFHVL [RPF2_Y109_YF]
rule not met

---

Test system: Fer (mouse)
Test: phosphorylation enrichment, bacterial display (enrichment ratio); higher = better substrate or ligand; peptides without Tyr show the background
Criterion: phosphorylation enrichment meeting or surpassing 0.5. Met: yes (1). Not met: no (0).

Illustrative cases are given below, each with its answer.
[
  {
    "Seq": "GIVEDYRPPVF [ACVRL1_Y421_F425V_YF]",
    "Classification": "no (0)"
  },
  {
    "Seq": "PEVSGYCHFAD [TG_Y234_C237Y_YF]",
    "Classification": "yes (1)"
  },
  {
    "Seq": "AEDKPYAELWT [MPI_Y46_M51T]",
    "Classification": "yes (1)"
  },
  {
    "Seq": "LIQRNYKLAAQ [ALPK2_Y1975]",
    "Classification": "yes (1)"
  },
  {
    "Seq": "VIERSYTSADG [DHCR7_Y382_C380R]",
    "Classification": "no (0)"
  }
]

Here's the next entry for you.
Is reported phosphorylation enrichment greater than or equal to 0.5 here: WFPSTYVEEDE [VAV3_Y842]
yes (1)

---

Biological target: EPHB1 (UniProt P54762)
Sequence (P54762 whole entry, looked up): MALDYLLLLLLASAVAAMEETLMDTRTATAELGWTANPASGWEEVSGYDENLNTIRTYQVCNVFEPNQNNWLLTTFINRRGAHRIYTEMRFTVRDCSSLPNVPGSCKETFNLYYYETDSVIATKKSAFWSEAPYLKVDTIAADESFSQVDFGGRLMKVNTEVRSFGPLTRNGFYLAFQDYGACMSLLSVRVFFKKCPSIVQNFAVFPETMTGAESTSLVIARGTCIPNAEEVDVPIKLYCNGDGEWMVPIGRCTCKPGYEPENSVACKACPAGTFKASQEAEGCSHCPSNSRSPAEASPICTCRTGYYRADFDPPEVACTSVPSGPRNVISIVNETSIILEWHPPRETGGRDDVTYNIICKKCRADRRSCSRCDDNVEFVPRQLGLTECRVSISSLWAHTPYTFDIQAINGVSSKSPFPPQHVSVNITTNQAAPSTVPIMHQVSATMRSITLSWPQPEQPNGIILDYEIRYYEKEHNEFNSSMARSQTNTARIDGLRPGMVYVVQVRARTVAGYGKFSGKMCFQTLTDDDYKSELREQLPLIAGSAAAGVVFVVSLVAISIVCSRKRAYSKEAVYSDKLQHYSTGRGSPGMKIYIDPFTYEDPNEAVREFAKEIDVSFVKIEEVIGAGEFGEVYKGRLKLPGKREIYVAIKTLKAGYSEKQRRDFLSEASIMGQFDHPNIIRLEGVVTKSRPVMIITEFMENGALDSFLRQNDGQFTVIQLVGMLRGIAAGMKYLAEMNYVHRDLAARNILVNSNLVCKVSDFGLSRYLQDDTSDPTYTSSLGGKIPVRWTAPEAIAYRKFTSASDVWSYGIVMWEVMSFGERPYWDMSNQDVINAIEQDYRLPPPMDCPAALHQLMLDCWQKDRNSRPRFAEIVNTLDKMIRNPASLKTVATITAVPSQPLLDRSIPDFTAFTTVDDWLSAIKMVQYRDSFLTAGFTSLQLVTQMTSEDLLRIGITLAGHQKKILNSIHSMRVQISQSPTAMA
Experiment: phosphorylation enrichment, bacterial display (enrichment ratio); higher = better substrate or ligand; peptides without Tyr show the background
Criterion: phosphorylation enrichment meeting or surpassing 0.5. Met: met. Not met: not met.

[
  {
    "Seq": "QKKPRYEIRWK [PDGFRB_Y562]",
    "Classification": "met"
  },
  {
    "Seq": "TARREYMHSPS [CPOX_Y429_W427R]",
    "Classification": "not met"
  },
  {
    "Seq": "PSARTYCYKQE [KLHDC9_Y175]",
    "Classification": "met"
  },
  {
    "Seq": "LLGFLYFFVCS [SLC34A2_Y109]",
    "Classification": "met"
  },
  {
    "Seq": "LSDGPYSSPFE [EPOR_Y485_N487S_YF]",
    "Classification": "met"
  },
  {
    "Seq": "NFRTTYVNANE [KCNH2_Y475]",
    "Classification": "not met"
  },
  {
    "Seq": "DRLTVYIDRVR [LMNA_Y45_A43T]",
    "Classification": "met"
  },
  {
    "Seq": "TNGFTYGSSHQ [MANEA_Y331]",
    "Classification": "not met"
  }
]

Is reported phosphorylation enrichment greater than or equal to 0.5 here: FADIAYSYRHG [PAH_Y166_N167S]
not met

Is reported phosphorylation enrichment greater than or equal to 0.5 here: CTTFHYNFMCN [TP53_Y234_I232F_YF]
not met

Is reported phosphorylation enrichment greater than or equal to 0.5 here: ESAAIYNPVIF [RHO_Y301_K296E_YF]
not met

Is reported phosphorylation enrichment greater than or equal to 0.5 here: FPCSVYVPDEW [INSR_Y1011]
met

Is reported phosphorylation enrichment greater than or equal to 0.5 here: KKKKQYKDKYL [CASK_Y708]
met

Is reported phosphorylation enrichment greater than or equal to 0.5 here: SSFDIYHLSRE [KIR3DL2_Y253_YF]
met

Is reported phosphorylation enrichment greater than or equal to 0.5 here: RRIHSYRGHLC [VHL_Y112_W117C]
met

Is reported phosphorylation enrichment greater than or equal to 0.5 here: LLLLFCVVRYC [MPZ_Y177_Y177C]
met

Is reported phosphorylation enrichment greater than or equal to 0.5 here: NACGLYHTMNG [GATA5_Y216_K218T]
met

Is reported phosphorylation enrichment greater than or equal to 0.5 here: SADIAYNYRHG [PAH_Y166_F161S]
not met

Is reported phosphorylation enrichment greater than or equal to 0.5 here: TTGGFYSFGGG [KRT24_Y120_A115T_YF]
met

Is reported phosphorylation enrichment greater than or equal to 0.5 here: GNFSGYDDAWD [POLR1C_Y36_YF]
met

Is reported phosphorylation enrichment greater than or equal to 0.5 here: LSIDRYHAIVF [NPSR1_Y147_YF]
met

Is reported phosphorylation enrichment greater than or equal to 0.5 here: DVAKEYGHLLP [HRC_Y99_S96A]
met

Is reported phosphorylation enrichment greater than or equal to 0.5 here: ELPEKYSQNIF [PKP2_Y626_YF]
met

Is reported phosphorylation enrichment greater than or equal to 0.5 here: ALEQKYWALGQ [MAP1A_Y1555]
met

Is reported phosphorylation enrichment greater than or equal to 0.5 here: ALHHPYGCDVE [ABL2_Y80_R78H]
met

Is reported phosphorylation enrichment greater than or equal to 0.5 here: WGLRSYYETSK [MAGED2_Y448]
met
